- assayedSystem: NACHT, LRR and PYD domains-containing protein 3 (Homo sapiens, UniProt Q96P20)
- Sequence (Q96P20 whole entry, the tested form may be a part): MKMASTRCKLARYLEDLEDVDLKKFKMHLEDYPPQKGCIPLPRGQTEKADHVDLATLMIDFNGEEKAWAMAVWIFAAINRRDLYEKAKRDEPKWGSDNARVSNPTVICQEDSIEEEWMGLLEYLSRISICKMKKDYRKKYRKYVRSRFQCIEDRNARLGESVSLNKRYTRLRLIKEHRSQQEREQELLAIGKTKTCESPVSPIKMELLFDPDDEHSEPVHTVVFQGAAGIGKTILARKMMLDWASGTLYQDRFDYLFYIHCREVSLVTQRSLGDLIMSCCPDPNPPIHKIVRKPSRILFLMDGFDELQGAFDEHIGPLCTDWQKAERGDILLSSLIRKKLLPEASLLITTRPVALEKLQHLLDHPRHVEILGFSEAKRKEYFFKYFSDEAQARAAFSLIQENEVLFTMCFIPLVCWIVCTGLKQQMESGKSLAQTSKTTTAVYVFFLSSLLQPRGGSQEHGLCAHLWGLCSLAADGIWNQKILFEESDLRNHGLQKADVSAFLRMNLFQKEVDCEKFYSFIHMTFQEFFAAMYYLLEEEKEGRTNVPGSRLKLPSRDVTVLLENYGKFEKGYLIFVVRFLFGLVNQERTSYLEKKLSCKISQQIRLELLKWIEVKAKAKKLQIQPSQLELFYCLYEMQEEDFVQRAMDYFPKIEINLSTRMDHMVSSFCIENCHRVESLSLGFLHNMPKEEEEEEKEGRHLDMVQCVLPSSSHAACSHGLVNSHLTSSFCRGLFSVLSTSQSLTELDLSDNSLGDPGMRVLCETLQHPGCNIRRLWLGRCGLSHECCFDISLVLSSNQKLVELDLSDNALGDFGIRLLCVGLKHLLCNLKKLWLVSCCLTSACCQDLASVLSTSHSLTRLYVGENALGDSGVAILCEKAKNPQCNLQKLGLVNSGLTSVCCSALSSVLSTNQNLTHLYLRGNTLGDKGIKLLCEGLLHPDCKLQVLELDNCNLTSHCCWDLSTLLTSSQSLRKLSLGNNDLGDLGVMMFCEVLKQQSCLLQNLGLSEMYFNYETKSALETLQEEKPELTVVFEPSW
- methodSummary: Inhibition of nigericin-induced NLRP3 inflammasome activation in PMA-differentiated human THP1 cells assessed as reduction in LPS-stimulated IL-1beta secretion incubated for 1 hr prior to stimulation with nigericin for 1 hr by quanti-blue based SEAP reporter gene assay
recordedEndpoint: IC50 (µM)

Would you please look over these solved cases?
Q: Tell me the measured IC50 of CC(=O)OC[C@@H]1C=CC(=O)CO1 , please.
Ans: 4.3

Q: Tell me the measured IC50 of CC(=O)OC[C@@H]1C=C(F)C(=O)CO1 , please.
Ans: 3.7

Q: Tell me the measured IC50 of O=C1C(F)=C[C@@H]2CO[C@H]1O2 (single isomer, unassigned) , please.
Ans: 4.8

Q: Tell me the measured IC50 of O=C1CO[C@H](CO)[C@@H](O)C1 , please.
Ans: 2300

1. CCCC(=O)OC[C@@H]1C=CC(=O)CO1
2. O=C1C=C[C@H]2CO[C@@H]1O2
Q: Exercise: compare 1 and 2 ; which one has the greater IC50? Your answer should be the label attached to the chosen record.
Ans: 2

====

- assayedSystem: NACHT, LRR and PYD domains-containing protein 3 (Mus musculus)
- Sequence (Q8R4B8 whole entry, the tested form may be a part): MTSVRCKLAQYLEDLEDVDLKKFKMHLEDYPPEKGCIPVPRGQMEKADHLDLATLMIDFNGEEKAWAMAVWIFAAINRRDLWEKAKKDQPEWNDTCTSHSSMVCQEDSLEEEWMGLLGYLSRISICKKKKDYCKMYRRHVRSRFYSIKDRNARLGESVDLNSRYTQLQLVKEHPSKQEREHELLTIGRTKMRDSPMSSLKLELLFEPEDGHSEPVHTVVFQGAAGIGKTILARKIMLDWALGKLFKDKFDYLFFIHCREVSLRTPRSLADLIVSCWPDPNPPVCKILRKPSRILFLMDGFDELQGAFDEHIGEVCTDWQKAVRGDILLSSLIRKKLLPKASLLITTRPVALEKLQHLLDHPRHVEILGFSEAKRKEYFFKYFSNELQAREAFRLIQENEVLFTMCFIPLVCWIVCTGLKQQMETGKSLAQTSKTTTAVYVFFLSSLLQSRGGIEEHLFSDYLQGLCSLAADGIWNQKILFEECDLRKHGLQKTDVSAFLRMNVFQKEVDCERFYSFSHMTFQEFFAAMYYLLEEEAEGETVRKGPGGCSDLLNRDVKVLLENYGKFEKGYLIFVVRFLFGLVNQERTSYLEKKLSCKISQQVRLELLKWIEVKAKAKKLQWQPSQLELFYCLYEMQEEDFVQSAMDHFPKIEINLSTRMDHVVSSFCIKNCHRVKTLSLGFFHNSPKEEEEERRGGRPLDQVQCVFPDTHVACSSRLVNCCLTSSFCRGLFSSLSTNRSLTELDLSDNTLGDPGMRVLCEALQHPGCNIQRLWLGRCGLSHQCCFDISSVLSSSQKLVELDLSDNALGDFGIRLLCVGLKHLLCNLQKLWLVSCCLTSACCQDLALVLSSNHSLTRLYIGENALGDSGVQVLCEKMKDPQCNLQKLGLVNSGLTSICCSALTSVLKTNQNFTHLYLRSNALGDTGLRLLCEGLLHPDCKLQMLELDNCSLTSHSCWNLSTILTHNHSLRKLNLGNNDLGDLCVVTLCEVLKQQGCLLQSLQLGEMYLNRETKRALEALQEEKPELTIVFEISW
- methodSummary: Inhibition of nigericin-induced NLRP3-dependent pyroptosis in C57BL/6 mouse bone marrow derived macrophages assessed as restoration of LPS-stimulated decrease in intracellular ATP level incubated for 1 hr followed by nigericin addition measured after 1 hr by cell titer-glo reagent based luminescence assay
recordedEndpoint: inhibition

Would you please look over these solved cases?
Q: Tell me the measured inhibition of O=C1C(F)=C[C@@H]2CO[C@H]1O2 (single isomer, unassigned) , please.
Ans: Dose-dependent effect

Q: Tell me the measured inhibition of CCCC(=O)OC[C@@H]1C=CC(=O)CO1 , please.
Ans: Dose-dependent effect

Q: Tell me the measured inhibition of CC(=O)OC1=C(F)C(OC(C)=O)[C@@H]2CO[C@H]1O2 (stereo partly drawn) , please.
Ans: Dose-dependent effect

Q: Tell me the measured inhibition of CC(=O)OC[C@@H]1C=C(F)C(=O)CO1 , please.
Ans: Dose-dependent effect

Q: Tell me the measured inhibition of CCCCCCCC(=O)OC[C@@H]1C=CC(=O)CO1 , please.
Ans: Dose-dependent effect

Q: Tell me the measured inhibition of O=C1C=C[C@@H](CO)OC1 , please.
Ans: Dose-dependent effect

Q: Tell me the measured inhibition of CC(=O)OC[C@@H]1C=CC(=O)CO1 , please.
Ans: Dose-dependent effect

Now consider a different compound.
Q: Tell me the measured inhibition of O=C1CO[C@H](CO)[C@@H](O)C1 , please.
Ans: Dose-dependent effect

====

- assayedSystem: NACHT, LRR and PYD domains-containing protein 3 (Mus musculus)
- methodSummary: Inhibition of nigericin-induced NLRP3 inflammasome activation in C57BL/6 mouse bone marrow derived macrophages assessed as reduction in LPS-stimulated IL-1beta secretion incubated for 1 hr followed by nigericin addition measured after 1 hr by ELISA
pIC50: −log10 of the molar value.
recordedEndpoint: pIC50

Would you please look over these solved cases?
Q: Tell me the measured pIC50 of CC(=O)OC1=C(F)C(OC(C)=O)[C@@H]2CO[C@H]1O2 (stereo not given in full) , please.
Ans: 6.00

Q: Tell me the measured pIC50 of CC(=O)OC[C@@H]1C=C(F)C(=O)CO1 , please.
Ans: 5.49

Q: Tell me the measured pIC50 of O=C1CO[C@H](CO)[C@@H](O)C1 , please.
Ans: 2.80

a. CCCC(=O)OC[C@@H]1C=CC(=O)CO1
b. O=C1C=C[C@H]2CO[C@@H]1O2
Q: Hi, I'm comparing two records. Which one has the lower pIC50, a or b ? Your answer should be the label attached to the chosen record.
Ans: a

1. CCCCCCCC(=O)OC[C@@H]1C=CC(=O)CO1
2. O=C1CO[C@H](CO)[C@@H](O)[C@@H]1O
Q: Exercise: compare 1 and 2 ; which one has the greater pIC50? Your answer should be the label attached to the chosen record.
Ans: 1

P. CC(=O)OC[C@@H]1C=CC(=O)CO1
Q. O=C1C(F)=C[C@@H]2CO[C@H]1O2 (single isomer, unassigned)
R. O=C1C=C[C@@H](CO)OC1
Q: Returns the items ordered by pIC50, from maximum to minimum. Provide the ranking by listing each label in its place in the requested order.
Ans: Q, P, R
